Study Target: ITK (Homo sapiens)
Sequence (Q08881 1-620): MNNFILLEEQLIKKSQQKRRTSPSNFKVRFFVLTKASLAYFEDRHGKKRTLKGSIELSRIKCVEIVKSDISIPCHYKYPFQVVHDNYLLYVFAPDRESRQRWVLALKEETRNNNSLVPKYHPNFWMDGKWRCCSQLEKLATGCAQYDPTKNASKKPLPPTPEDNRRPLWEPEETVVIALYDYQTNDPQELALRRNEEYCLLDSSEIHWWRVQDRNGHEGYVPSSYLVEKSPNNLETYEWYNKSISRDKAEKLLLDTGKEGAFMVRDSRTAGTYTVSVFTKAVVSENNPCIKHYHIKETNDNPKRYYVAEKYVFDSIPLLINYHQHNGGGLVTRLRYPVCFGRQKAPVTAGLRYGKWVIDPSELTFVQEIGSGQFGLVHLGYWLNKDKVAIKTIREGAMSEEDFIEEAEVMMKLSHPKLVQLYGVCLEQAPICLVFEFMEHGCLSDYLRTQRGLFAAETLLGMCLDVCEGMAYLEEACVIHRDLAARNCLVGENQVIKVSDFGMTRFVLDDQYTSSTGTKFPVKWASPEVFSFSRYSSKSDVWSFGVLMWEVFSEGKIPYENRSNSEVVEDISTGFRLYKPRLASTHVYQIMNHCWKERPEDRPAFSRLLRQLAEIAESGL
Experimental Details: ITK degradation MSD (Meso Scale Discovery) assay
Type: cell-based
Set-up: either human Jurkat (Clone E6-1 ATCC TIB-152) or Motl4 (ATCC CRL-1552), were plated; endogenous in cells; host or cells: Jurkat clone E6-1 (ATCC TIB-152) or Molt4 (ATCC CRL-1552)
Particulars: Jurkat or Molt4 cells, 4 or 6 hrs
Measured Dmax values are reported for all entries that follow.
Write it as a number; the unit % goes unstated.

In plain terms, C[C@@]12Cc3[nH]nc(C(=O)Nc4cnn([C@H](c5ccccc5)C5CN(C(=O)C6CCN(c7ccc(C(=O)NC8CCC(=O)NC8=O)nc7)CC6)C5)c4)c3C[C@@H]1C2(F)F (stereo partly drawn) [Compound 40] has a documented Dmax of 46

Looking up C[C@@]12Cc3[nH]nc(C(=O)Nc4cnn([C@H](c5ccccc5)C5CN(C(=O)CCOCCOCCOCCOCCOCCOCCOCCOCCNc6cccc7c6C(=O)N(C6CCC(=O)NC6=O)C7=O)C5)c4)c3C[C@@H]1C2(F)F (stereo partly drawn) [Compound 30] , I found its Dmax recorded as 92

Input CN(C(=O)C1CN(C2CCN(c3ccc4c(c3)C(=O)N(C3CCC(=O)NC3=O)C4=O)CC2)C1)c1ccc2cc(-c3n[nH]c4c3CCC(C)(C)C4)[nH]c2c1 (stereo not drawn) [Compound 35] . Output Dmax: 83

###

Study Target: UniProt Q08881
Experimental Details: ITK degradation HiBiT assay
Format: cell-based
Set-up: expressed in transfected cells; host or cells: Molt4 (ATCC CRL-1552), monoclonal clone 1C10, engineered to carry the HiBiT tag
Particulars: MOLT-4, C-terminal HiBiT-tagged Molt4 cells, 4 hrs
Structures can show the parent of a compound that is named as a salt.
Would you please tag the item T when its Dmax is 80% or above, and F when it is below?

# count of solved cases: 3
### Prompt Does C[C@@]12Cc3[nH]nc(-c4cc5ccc(N6CCC7(CCN(Cc8ccc9c(c8)C(=O)N(C8CCC(=O)NC8=O)C9=O)CC7)C6=O)cc5[nH]4)c3C[C@@H]1C2(F)F (some centres unmarked) [Compound 15, hydrochloride] have a reported Dmax of at least 80%?
### Response T

### Prompt Identify whether the reported Dmax of the following compound is 80% or greater: C[C@@]12Cc3[nH]nc(-c4cc5cc(C(=O)N6CCN(CC7(F)CCN(c8ccc(C9CCC(=O)NC9=O)cc8)CC7)CC6)ccc5[nH]4)c3C[C@@H]1C2(F)F (some centres unmarked)
### Response T

### Prompt Given Cn1c(=O)n(C2CCC(=O)NC2=O)c2cccc(N3CCC(C(=O)N4CC(n5cc(NC(=O)c6n[nH]c7c6C[C@@H]6C(F)(F)[C@]6(C)C7)cn5)C4)CC3)c21 (some centres unmarked) , state whether its Dmax is at least 80%.
### Response F

Continue with the compound presented below.
### Prompt Assess whether reported Dmax for CC1(C)CCc2c(-c3cc4ccc(C(=O)N5CCC(CN6CCc7cc(C8CCC(=O)NC8=O)ccc7C6)CC5)cc4[nH]3)n[nH]c2C1 (centres unmarked) sits at 80% or higher.
### Response T
